Measured IC50 by item
measured-target: 11-beta-hydroxysteroid dehydrogenase 1 (Mus musculus, UniProt P50172)
Sequence (P50172 whole entry): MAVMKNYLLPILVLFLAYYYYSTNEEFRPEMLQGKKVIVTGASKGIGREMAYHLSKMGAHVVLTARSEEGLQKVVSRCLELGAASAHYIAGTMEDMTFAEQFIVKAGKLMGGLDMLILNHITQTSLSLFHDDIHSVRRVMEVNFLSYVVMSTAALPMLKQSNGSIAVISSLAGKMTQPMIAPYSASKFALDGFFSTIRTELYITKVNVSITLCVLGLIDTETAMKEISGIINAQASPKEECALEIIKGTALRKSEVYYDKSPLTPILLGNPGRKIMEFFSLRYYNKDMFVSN
assay: Inhibition of mouse 11beta-HSD1 expressed in HEK293 cell microsomes assessed as inhibition of [3H]cortisone conversion to [3H]cortisol by scintillation proximity assay
Parameters: species or system Microsome

See these solved cases before continuing.
Could you please provide reported IC50 for C=C1C[C@@]23CC[C@H]4[C@@](C)(CCC[C@@]4(C)C(=O)O)[C@@H]2CC[C@@H]1C3 ? Thanks!
357 nM

For the compound C[C@@]1(CO)CCC[C@]2(C)[C@@H]1CC[C@@]13C[C@H](CC[C@H]12)[C@@](O)(CO)C3 , give its reported IC50.
2810 nM

Return reported IC50. Input compound: C=C1[C@H]2C[C@H](O)[C@H]3[C@]4(C)CCC[C@@](C)(NC(=O)NC56CC7CC(CC(C7)C5)C6)[C@H]4CC[C@]3(C2)[C@@H]1O
> 1000 nM

Please look at this compound and report its IC50: C=C1[C@H]2C[C@H](OC(C)=O)[C@H]3[C@]4(C)CCC[C@@](C)(C(=O)O)[C@H]4CC[C@]3(C2)[C@@H]1O
> 1000 nM

Give a short answer stating reported IC50 for C=C1[C@H]2C[C@H](O)[C@H]3[C@]4(C)CCC[C@@](C)(NC(=O)Nc5cccc6ccccc56)[C@H]4CC[C@]3(C2)[C@@H]1O .
> 1000 nM

Assign IC50 to the following record: C=C1[C@H]2C[C@H](O)[C@H]3[C@]4(C)CCC[C@@](C)(NC(=O)NC5CCCCC5)[C@H]4CC[C@]3(C2)[C@@H]1O
> 1000 nM

***
Identify IC50 associated with the compound C=C1[C@H]2C[C@H](O)[C@H]3[C@]4(C)CCC[C@@](C)(NC(=O)Nc5ccc(F)cc5)[C@H]4CC[C@]3(C2)[C@@H]1O
> 1000 nM
